Target: Plasma-kallikrein (Homo sapiens)
Sequence (P03952 391-638 limits assumed): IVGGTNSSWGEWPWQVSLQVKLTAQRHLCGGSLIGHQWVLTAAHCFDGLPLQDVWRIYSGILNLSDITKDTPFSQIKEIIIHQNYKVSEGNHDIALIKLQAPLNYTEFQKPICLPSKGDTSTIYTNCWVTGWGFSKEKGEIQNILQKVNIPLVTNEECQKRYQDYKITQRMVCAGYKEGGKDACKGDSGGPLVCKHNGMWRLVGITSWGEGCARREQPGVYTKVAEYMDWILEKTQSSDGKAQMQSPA
Sequence (P03952 20-390 partner limits assumed): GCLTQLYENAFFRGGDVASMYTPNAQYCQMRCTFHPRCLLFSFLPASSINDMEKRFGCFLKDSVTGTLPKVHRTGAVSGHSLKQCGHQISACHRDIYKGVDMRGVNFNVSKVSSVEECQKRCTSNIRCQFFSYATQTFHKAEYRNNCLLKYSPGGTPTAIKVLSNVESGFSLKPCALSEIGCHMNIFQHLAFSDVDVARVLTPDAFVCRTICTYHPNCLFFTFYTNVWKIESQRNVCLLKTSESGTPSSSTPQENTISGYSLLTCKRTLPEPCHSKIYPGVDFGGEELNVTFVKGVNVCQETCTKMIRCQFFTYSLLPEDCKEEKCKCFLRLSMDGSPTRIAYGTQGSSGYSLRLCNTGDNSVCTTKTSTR
Experiment: Determination of Ki values, chromogenic substrate, Dixon evaluation: plasma-kallikrein
Conditions: 25° C., tris buffer pH 8.0, substrate Bz-Pro-Phe-Arg-pNA; read-out: Ki PK (plasma-kallikrein)
Experimental: In a particularly preferred embodiment the compound according to Formula (I) inhibits not only the blood coagulation factor XA but also thrombin and/or plasma kallikrein. […] 200 μl of inhibitor solution were mixed with 25 μl of substrate for the determination and the reaction was started by the addition of 50 μl of enzyme. […] 25 μl of acetic acid (50%) were added and the extinction was measured at 405 nm with a microplate reader (iEMS Reader MF 12401, Labsystems, Helsinki, Finland). […]
Below: a set of entries, each annotated with reported pKi.
In simple prose, pKi is minus the logarithm base ten of a concentration in moles per litre.

# count of solved cases: 3
N=C(N)NCCC[C@@H](NS(=O)(=O)Cc1ccccc1)C(=O)NCC(=O)NCc1ccc(C(=N)N)cc1 [CJ-FXa] = 7.08
COC(=O)[C@H](Cc1cccc(C(=N)N)c1)[C@@H](C)NC(=O)c1ccc(-c2cc[n+]([O-])cc2)cc1 (mixture of isomers) [Otamixaban] = 7.59
N=C(N)c1ccc(C=C2CCCCC(=Cc3ccc(C(=N)N)cc3)C2=O)cc1 [Pefabloc tPA/Xa] = 6.14

Prompt: Item under review: CC(=N)N1CC[C@H](Oc2ccc([C@H](Cc3ccc4ccc(C(=N)N)cc4c3)C(=O)O)cc2)C1 [DX-9065a] . Reported pKi?
Completion: 6.28
